- target.or.system: CD137 on Jurkat reporter cells (Promega kit CS196005) (UniProt Q07011 24-255, limits assumed)
- Sequence (Q07011 24-255 limits assumed): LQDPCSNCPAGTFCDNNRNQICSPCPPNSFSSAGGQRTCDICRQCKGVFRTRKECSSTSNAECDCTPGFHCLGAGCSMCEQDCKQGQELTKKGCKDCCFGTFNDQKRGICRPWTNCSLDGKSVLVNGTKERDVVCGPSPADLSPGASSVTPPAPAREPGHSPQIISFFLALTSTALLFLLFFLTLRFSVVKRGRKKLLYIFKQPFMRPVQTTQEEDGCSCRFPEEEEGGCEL
- assay.method.text: cell-based or functional assay
Starred links: 1 amine or outer side, 2 acyl side, 3 side chain; linkers in the order of their positions; H or OH if unused. Positions of bridges follow the written chain, without caps; N, C: chain ends. Non-standard residues stand in square brackets, D forms with d. Chains are numbered I, II in the order given. No end group written: not given here. *: point of attachment. TATA = O=C(CC[*:1])N1CN(C(=O)CC[*:2])CN(C(=O)CC[*:3])C1; γGlu = O=C(O)[C@H](CCC(=O)[*:2])N[*:1]; 1Nal = N[C@@H](Cc1cccc2ccccc12)C(=O)O; Palmitoyl = CCCCCCCCCCCCCCCC(=O)*; Hyp = O=C(O)[C@@H]1C[C@@H](O)CN1; hArg = N=C(N)NCCCC[C@H](N)C(=O)O; tBuAla = CC(C)(C)C[C@H](N)C(=O)O; NMeA = CN[C@@H](C)C(=O)O; Nle = CCCC[C@H](N)C(=O)O; Pent4ynoyl = C#CCCC(=O)*
test.readout: EC50 (nM), HT1376 co-culture

- BCY10918 (not fully specified; BCY8928: Ac-(SEQ ID NO: 11)-A; TATA; linker at dLys(PYA)4; BCY11015: [PYA]-(SEQ ID NO: 1); TATA; linker at N-term PYA) peptide 1: CPXDCMXDWSTPXWC peptide 2: CXPEXPYCFADPYXCA: 0.16
- BCY12589 (linker I:1-I:5-I:15, II:1-II:8-II:15 via TATA; not fully specified; also: chain 2 present twice on linker, Nectin-4:CD137 1:2, linker at B5 via N-(acid-PEG3)-N-bis(PEG3-azide), other end not in the chain) peptide 1: {Palmitoyl-γGlu-γGlu}-CP[1Nal]KCM[hArg]DWSTP[Hyp]WC peptide 2: Ac-C[tBuAla]PE[dK](Pent4ynoyl)PYCFADPY[Nle]CA: 0.44
- BCY11022 (not fully specified; BCY8928: Ac-(SEQ ID NO: 11)-A; TATA; linker at dLys(PYA)4; BCY11016: [PYA]-[B-Ala]-(SEQ ID NO: 1); TATA; linker at N-term PYA) peptide 1: CPXDCMXDWSTPXWC peptide 2: CXPEXPYCFADPYXCA: 0.2
- BCY12760 (linker I:1-I:5-I:15, II:1-II:8-II:15 via TATA; not fully specified (some residues, bridges); also: chain 1 N-terminus and chain 2 dLys(PYA)4 joined by N-(acid-PEG3)-N-bis(PEG3-azide) linker) peptide 1: CP[1Nal]DCM[hArg]DWSTP[Hyp]WC peptide 2: Ac-C[tBuAla]PE[dK](Pent4ynoyl)PYCFAD[NMeA]Y[Nle]C: 1.8
